Reference source: patent US10730913B1

System: Staphylococcus aureus
Experiment: MIC determination against ESKAPE pathogens (broth culture, 96-well, turbidity)
Assay type: cell-based
Settings: Staphylococcus aureus strain 635; 37° C.
Peptide text beside a SMILES is read from it.
Below: a set of entries, each annotated with reported MC90 Results, Sa (+).
result.type: MC90 Results, Sa (+) (µM)

INSERT INTO measurements (compound, assay_target, experimental_value) VALUES
  ('CC(C)C[C@@H]1NC(=O)[C@H](CCCN)NC(=O)[C@H](C(C)C)NC(=O)[C@@H]2CCCN2C(=O)[C@@H](Cc2ccccc2)N(N)C(=O)[C@H](CC(C)C)NC(=O)[C@H](CCCN)NC(=O)[C@H](C(C)C)NC(=O)[C@@H]2CCCN2C(=O)[C@@H](Cc2ccccc2)N(N)C1=O [Compound 2] (HELM PEPTIDE1{L.[NN([C@H](Cc1ccccc1)C(=O)[*:2])[*:1]].P.V.[Orn].L.[NN([C@H](Cc1ccccc1)C(=O)[*:2])[*:1]].P.V.[Orn]}$PEPTIDE1,PEPTIDE1,1:R1-10:R2$$$V2.0)', 'Staphylococcus aureus', 4),
  ('CC(C)C[C@@H]1NC(=O)[C@H](CCCN)N(N)C(=O)[C@H](C(C)C)NC(=O)[C@@H]2CCCN2C(=O)[C@@H](Cc2ccccc2)N(N)C(=O)[C@H](CC(C)C)NC(=O)[C@H](CCCN)NC(=O)[C@H](C(C)C)NC(=O)[C@@H]2CCCN2C(=O)[C@@H](Cc2ccccc2)NC1=O [Compound 4] (HELM PEPTIDE1{L.[dF].P.V.[Orn].L.[NN([C@H](Cc1ccccc1)C(=O)[*:2])[*:1]].P.V.[NCCC[C@@H](C(=O)[*:2])N(N)[*:1]]}$PEPTIDE1,PEPTIDE1,1:R1-10:R2$$$V2.0)', 'Staphylococcus aureus', 2),
  ('CC(C)C[C@@H]1NC(=O)[C@H](CCCN)N(N)C(=O)[C@H](C(C)C)NC(=O)[C@@H]2CCCN2C(=O)[C@@H](Cc2ccccc2)NC(=O)[C@H](CC(C)C)NC(=O)[C@H](CCCN)N(N)C(=O)[C@H](C(C)C)NC(=O)[C@@H]2CCCN2C(=O)[C@@H](Cc2ccccc2)NC1=O [Compound 7] (HELM PEPTIDE1{L.[dF].P.V.[NCCC[C@@H](C(=O)[*:2])N(N)[*:1]].L.[dF].P.V.[NCCC[C@@H](C(=O)[*:2])N(N)[*:1]]}$PEPTIDE1,PEPTIDE1,1:R1-10:R2$$$V2.0)', 'Staphylococcus aureus', 2);
